Data provenance: PubChem BioAssay (NCI)

Tested on: DMS 273 small cell lung
measurement.description: NCI tumour cell line growth inhibition, 48 h
recorded.metric: TGI

Solved entries (count: 8):
>>> observed("COc1ccc(-c2cc(=O)c3ccccc3o2)cc1N")
"> 100 µM"
>>> observed("CCCCCCCCCCCCCCCCCCN(C)C(COC)COP(=O)([O-])OCC[N+](C)(C)C (stereo unspecified)")
"2.92 µM"
>>> observed("C=C1C(=O)OC2C1CCC(C)C1C=CC(=O)C12C (stereo unspecified)")
"23.5 µM"
>>> observed("Cc1ccccc1NC(=O)c1c(C)oc2c1C(=O)c1ccccc1C2=O")
"> 100 µM"
>>> observed("Cn1nc(-c2ccccc2)c(C(=O)/C=C/c2ccc(Cl)cc2)c(N2CCCCC2)c1=O")
"6.75 µM"
>>> observed("C=C(C#N)C1OCC2OC(C)(C)OC21 (stereo unspecified)")
"43.1 µM"
>>> observed("COc1ccc(C(=O)C(C(=O)CC(=O)Nc2cccc(C(F)(F)F)c2)c2ccc(OC)cc2)cc1 (stereo unspecified)")
"> 100 µM"
>>> observed("CC1=C[C@]2(O)C(=O)[C@H](C)C[C@H]3[C@@H](CC[C@@](C)(O)/C=C\\2C1=O)C3(C)C")
"52.3 µM"

Parameters: items (list). Returns: TGI for each item.
1. C[C@]12CC[C@H](OC3OC(CO)C(O)C(O)C3O)C[C@H]1CC[C@@H]1[C@@H]2CC[C@]2(C)[C@@H](C3=CCOC3=O)CC[C@]12O (stereo partly specified)
2. COc1cc2cc3c4cc(OC)c(OC)cc4cc[n+]3cc2cc1OC
3. CCOC(=O)/C(=C\c1ccc(N(CCC#N)CCC#N)cc1)NC(=O)c1cc([N+](=O)[O-])ccc1Cl
4. Cc1nc(C(N)=S)sc1C(=O)CC(=O)C(=O)Nc1ccccc1[N+](=O)[O-]

Key:
25.1 µM
> 100 µM
> 100 µM
> 100 µM

Provide TGI for all items below, preserving their order.
1. COc1ccc(NC(=O)CC/C(CC(=O)C(C)(C)C)=N\NC(=O)C(=O)NN)cc1
2. O=C(c1ccccc1)c1c(-c2ccccc2)sc2nc3ccccc3nc12
3. O=C1O[C@H](c2ccccc2)[C@@H]2CC3(CCN12)OCCO3
4. CCN(CC)CCCNC(=O)C1COc2cc(-c3cc(=O)c4ccccc4o3)ccc2O1 (stereo unspecified)

Key:
1: > 100 µM; 2: > 100 µM; 3: > 100 µM; 4: > 100 µM

====

Test system: TK-10 renal
measurement.description: NCI tumour cell line growth inhibition, 48 h
recorded.metric: log10 of TGI (log10 of the value in µM)
All values: base-10 log of TGI in µM.

>>> observed("C/C(=N\\Nc1cc(C)c2ccccc2n1)c1ccccn1")
0.44
>>> observed("C=C1C(=O)O[C@H]2[C@H]1CC/C(COC(=O)c1cc3ccccc3o1)=C\\CC[C@@]1(C)O[C@@H]21")
0.98
>>> observed("CC1=C(C(=O)Nc2ccc(Cl)c(Cl)c2)C(c2cccc(Cl)c2)NC(=O)N1 (centres undefined)")
-0.46
>>> observed("C#CC1(OC(C)=O)CCC2C3CC=C4C=C(OC(C)=O)CCC4(C)C3CCC21C (centres undefined)")
1.71
>>> observed("COc1ccc(NC([Se])=NC23CC4CC(CC(C4)C2)C3)cc1")
0.74

Now take the following compound into account.
Exercise: Could you share which log10 of TGI value was measured for COc1ccc(/C(COc2ccc3c(=O)c(-c4ccccc4)coc3c2)=N\O)cc1 ?
Key: 0.96

====

System: MCF7 breast
measurement.description: NCI tumour cell line growth inhibition, 48 h
recorded.metric: GI50

>>> observed("COC(=O)CC[C@]1(C)O[C@H]2[C@H]([C@@H](C)CCCC(C)=O)OC(=O)[C@@H]2C[C@H]1O")
"> 100 µM"
>>> observed("C=C(NC(=O)C(=C)NC(=O)c1csc(C2=NC3c4csc(n4)C4NC(=O)c5csc(n5)C(C(C)(O)C(C)O)NC(=O)C5CSC(=N5)C(=CC)NC(=O)C(C(C)O)NC(=O)c5csc(n5)C3(CC2)NC(=O)C(C)NC(=O)C(=C)NC(=O)C(C)NC(=O)C(C(C)CC)NC2C=Cc3c(C(C)O)cc(nc3C2O)C(=O)OC4C)n1)C(N)=O (stereo not given)")
"5.7 µM"

Can you give me GI50 for all of these, one by one?
1. COc1cccc(/C=C/[N+](=O)[O-])c1
2. COc1cc(N2CCC(N3CCN(C)CC3)CC2)ccc1Nc1ncnc(Nc2ccccc2S(=O)(=O)C(C)C)n1
3. CS(=O)(=O)CCNCc1ccc(-c2ccc3ncnc(Nc4ccc(OCc5ccccc5)c(Br)c4)c3c2)o1

Key:
1.2 µM
2.36 µM
7.07 µM

====

Test system: SF-539 CNS
measurement.description: NCI tumour cell line growth inhibition, 48 h
recorded.metric: GI50

>>> observed("c1cc(N2CCCN(c3ccc(C4=NCCCN4)cc3)CC2)ccc1C1=NCCCN1")
"59.4 µM"

Fill in GI50 for each of the 7 compounds listed.
1. CS(=O)(=O)CCNCc1ccc(-c2ccc3ncnc(Nc4ccc(OCc5ccccc5)c(Br)c4)c3c2)o1
2. CCCN(CCC)c1ccc(/C=C/c2ccc3cc(OCC)ccc3n2)cc1
3. COC(=O)CC[C@]1(C)O[C@H]2[C@H]([C@@H](C)CCCC(C)=O)OC(=O)[C@@H]2C[C@H]1O
4. COc1ccc(NC([Se])=NC23CC4CC(CC(C4)C2)C3)cc1
5. CC(=O)[CH-]C(=O)c1ccccc1.CC(=O)[CH-]C(=O)c1ccccc1.CC(C)CCCC(C)[C@H]1CCC2[C@@H]3CC=C4C[C@@H]([O-])CC[C@]4(C)C3CC[C@@]21C.CC(C)CCCC(C)[C@H]1CCC2[C@@H]3CC=C4C[C@@H]([O-])CC[C@]4(C)C3CC[C@@]21C.[Ti+4] (stereo partly drawn)
6. Cc1ccc(NC2=C(Cl)C(=O)N(Cc3ccc(Cl)cc3)C2=O)cc1O
7. CCN(Cc1ccccc1)c1ccc(CO)c(Cl)c1

Key:
1: 5.41 µM; 2: > 100 µM; 3: 84.9 µM; 4: 1.89 µM; 5: > 100 µM; 6: 3.1 µM; 7: 30.2 µM

====

System: NCI-H23 lung
measurement.description: NCI tumour cell line growth inhibition, 48 h; in the data active means GI50 below about 0.43 µM; inactive means the rest
Use one of these outcomes when replying: active, inactive

Sample answers from the record:
>>> cat("CNC(=S)NC(=O)c1c(Cl)n(C(=O)OC(C)(C)C)c2ccccc12")
"inactive"
>>> cat("Cc1ccc(Cc2cnc(NC(=O)/C=C/c3cccc(C)c3)s2)cc1")
"active"
>>> cat("C[C@]12CC[C@H](OC3OC(CO)C(O)C(O)C3O)C[C@H]1CC[C@@H]1[C@@H]2CC[C@]2(C)[C@@H](C3=CCOC3=O)CC[C@]12O (stereo not given in full)")
"inactive"
>>> cat("COc1cc2c(cc1OC)-c1ccc3cc4c(cc3c1N(CCCn1ccnc1)C2)OCO4")
"inactive"

Field: next molecule
Exercise: What outcome does the record of this test show for c1cc(N2CCCN(c3ccc(C4=NCCCN4)cc3)CC2)ccc1C1=NCCCN1 ?
Key: inactive

====

System: BT-549 breast
measurement.description: NCI tumour cell line growth inhibition, 48 h
Everything with TGI lower than 20 µM is Not fulfilled; everything else, including exactly 20 µM, is Fulfilled.

These recorded examples may help you get a feel for the data.
>>> cat("O=c1ccs[nH]1")
"Fulfilled"
>>> cat("Nc1c2c(c(O)c3c1=C(CO)C=N3)=NCCS2")
"Not fulfilled"
>>> cat("CC[C@@H]1C(=O)OC[C@@H]1Cc1cncn1C")
"Fulfilled"
>>> cat("C/C(=N\\Nc1cc(C)c2ccccc2n1)c1ccccn1")
"Not fulfilled"
>>> cat("C=C1C(=O)OC2C1CCC(C)C1C=CC(=O)C12C (centres undefined)")
"Not fulfilled"

Exercise: Is TGI for O=S(CC1(O)CCCCC1)c1ccccc1 (centres undefined) at or above 20 µM?
Key: Fulfilled

Exercise: Form field: TGI at least 20 µM? Entry: O=S(=O)(c1ccccc1)C(c1ccc2ccccc2n1)S(=O)(=O)c1ccccc1
Key: Fulfilled

Exercise: // inclusive: TGI at least 20 µM? input: COc1cc(S(=O)(=O)Nc2nc(-c3ccc(N4C(=O)/C(=C/C=C/c5ccccc5)N=C4c4ccccc4)cc3)cs2)ccc1Cl
Key: Fulfilled

====

For each entry below, report its TGI value.
Test system: SK-MEL-5 melanoma
measurement.description: NCI tumour cell line growth inhibition, 48 h

>>> observed("COc1ccc(/C(=N\\NC(=O)C(=O)NN)C(c2ccc(OC)cc2)C2(O)C(=O)Nc3ccccc32)cc1 (stereo not given)")
"> 100 µM"
>>> observed("O=C(CC(C(=O)c1cccs1)c1cccs1)c1ccsc1 (stereo not given)")
"> 100 µM"

# batch: return TGI for each of the 3 compounds below
1. COC(=O)c1cc2c3ccccc3n3c(=O)c4cc5ccccc5nc4c(n1)c23
2. CC1=C(C(=O)Nc2cc(=O)n(C)c(=O)n2C)C(c2cccc([N+](=O)[O-])c2)C(C(=O)Nc2cc(=O)n(C)c(=O)n2C)=C(C)N1
3. C/C(=N\Nc1cc(C)c2ccccc2n1)c1ccccn1

Key:
> 100 µM
> 100 µM
1.28 µM
